system: Staphylococcus aureus; assay: Antibacterial activity against methicillin-resistant Staphylococcus aureus ATCC 33591; assay type: functional
Non-standard residues stand in square brackets, D forms with d. Residues, ends and D or L forms follow the SMILES beside them. *: point of attachment. Dip = N[C@H](C(=O)O)C(c1ccccc1)c1ccccc1; Phe(4-NH2) = Nc1ccc(C[C@H](N)C(=O)O)cc1; NHPhenethyl = c1ccc(CCN*)cc1; NHBn = c1ccc(CN*)cc1

[
  {
    "compound": "N=C(N)NCCC[C@H](N)C(=O)N[C@@H](Cc1ccc(N)cc1)C(=O)N[C@@H](Cc1c[nH]c2ccccc12)C(=O)NCc1ccccc1 (H-Arg-[Phe(4-NH2)]-Trp-NHBn)",
    "measured on": "Staphylococcus aureus",
    "MIC": "79 µM"
  },
  {
    "compound": "N=C(N)NCCC[C@H](NC(=O)[C@@H](N)CCCNC(=N)N)C(=O)N[C@@H](Cc1c[nH]c2ccccc12)C(=O)NCc1ccccc1 (H-Arg-Arg-Trp-NHBn)",
    "measured on": "Staphylococcus aureus",
    "MIC": "26 µM"
  },
  {
    "compound": "N=C(N)NCCC[C@H](NC(=O)[C@@H](NC(=O)[C@@H](N)CCCNC(=N)N)C(c1ccccc1)c1ccccc1)C(=O)NCc1ccccc1 (H-Arg-[Dip]-Arg-NHBn)",
    "measured on": "Staphylococcus aureus",
    "MIC": "10 µM"
  },
  {
    "compound": "N=C(N)NCCC[C@H](NC(=O)[C@H](Cc1c[nH]c2ccccc12)NC(=O)[C@@H](N)CCCNC(=N)N)C(=O)NCCc1ccccc1 (H-Arg-Trp-Arg-NHPhenethyl)",
    "measured on": "Staphylococcus aureus",
    "MIC": "26 µM"
  }
]

Values were extracted from ChEMBL document CHEMBL1212827.
